Below is a list of entries, each paired with its recorded MIC value.
test system: Cryptococcus neoformans; test: Antimicrobial activity against Cryptococcus neoformans H99 assessed as reduction in […] growth and measured for 48 hrs by resazurin dye based broth microdilution method; type: functional
Just the number please, in µg/mL, no unit attached.

In the examples that follow, each entry is paired with its recorded MIC.
> print(dat)
                                   molecule  quantitative.readout
1      Cc1ccc2c(c1)C([C@@H](C)CO)=CC[C@H]2C                    50
2  COC=C[C@H](C)[C@@H]1CC[C@@H](C)[C@@H]2CCC(C)=C[C@@H]21 (mixture of isomers)                    50

*Q* Reported MIC, molecule C[C@@H]1CC[C@H]2[C@@H](C)C(=O)O[C@@H]3O[C@@]4(C)CC[C@@H]1[C@]32OO4 [ARTEMISININ] : ____
*A* 100

*Q* Next: `Cc1ccc2c(c1)[C@H]([C@@H](C)C(=O)O)CC[C@H]2C`
*A* 100

* * *

test system: Cryptococcus neoformans; assay: Antimicrobial activity against Cryptococcus neoformans H99 assessed as reduction in […] growth and measured for 48 hrs by resazurin dye based broth microdilution method; type: functional
measurement label: MIC (µg/mL)
The reply should contain only the number, in µg/mL.

> print(dat)
                              smiles.record  measurement.label  quantitative.readout
1  CC1=C[C@H]2[C@@H](C=C1)[C@H](C)CC[C@H]2[C@@H](C)CO                MIC                    25

Kindly review the next molecule as well.
*Q* For the molecule shown here, `CC1=C[C@H]2[C@@H](CC1)[C@H](C)CC[C@H]2[C@@H](C)C=O` , give the reported MIC.
*A* 12.5

* * *

tested on: Cryptococcus neoformans; assay: Antimicrobial activity against Cryptococcus neoformans H99 assessed as reduction in […] growth and measured for 48 hrs by resazurin dye based broth microdilution method; assay type: functional
measurement label: MIC

Example cases with answers are listed next.
molecule	MIC
CC1=C[C@H]2[C@@H](C=C1)[C@H](C)CC[C@H]2[C@@H](C)C(=O)O	100 µg/mL
Cc1ccc2c(c1)[C@H]([C@@H](C)C=O)CC[C@H]2C	100 µg/mL

We now examine a further molecule.
*Q* Given the entry `CC1=C[C@H]2[C@@H](CC1)[C@H](C)CC[C@H]2[C@@H](C)C(=O)O` , what MIC was observed with Cryptococcus neoformans?
*A* 25 µg/mL

* * *

tested on: Cryptococcus neoformans; assay: Antimicrobial activity against Cryptococcus neoformans H99 assessed as reduction in […] growth and measured for 48 hrs by resazurin dye based broth microdilution method; assay type: functional
measurement label: MIC

Previously resolved entries follow.
compound	target system	measurement label	result
C[C@@H]1[C@H](O)[C@@H](C)/C=C/C=C/C=C/C=C/C=C/C=C/C=C/[C@H](O[C@@H]2O[C@H](C)[C@@H](O)[C@H](N)[C@@H]2O)C[C@@H]2O[C@](O)(C[C@@H](O)C[C@@H](O)[C@H](O)CC[C@@H](O)C[C@@H](O)CC(=O)O[C@H]1C)C[C@H](O)[C@H]2C(=O)O	Cryptococcus neoformans	MIC	< 0.048 mg/L
CC(=O)OCCC[C@H](C)[C@@H]1CC[C@@H](C)[C@@H]2CCC(C)=C[C@@H]21	Cryptococcus neoformans	MIC	12.5 mg/L

*Q* # input compound: CC1C[C@@H]2OO[C@H]1[C@@H]1[C@H]([C@@H](C)C(=O)O)CC[C@@H](C)[C@@H]12 (stereo partly drawn) ; wanted: its MIC
*A* > 100 mg/L

* * *

Measured MIC, listed per entry for reference.
test system: Cryptococcus neoformans; experiment: Antimicrobial activity against Cryptococcus neoformans H99 assessed as reduction in […] growth and measured for 48 hrs by resazurin dye based broth microdilution method; assay type: functional

> print(dat)
                              smiles.record  measurement.label       result
1  CC1=C[C@H]2[C@@H](CC1)[C@H](C)CC[C@H]2[C@@H](C)CCC=O                MIC  > 100 µg/mL

*Q* Using the record for `CC1=CC2=C([C@@H](C)C(=O)O)CC[C@@H](C)[C@@H]2CC1` , report its MIC.
*A* > 100 µg/mL

*Q* # iterate: `CC(C)=CCC[C@H](C)[C@@H]1CC[C@@H](C)c2ccc(C)cc21`
*A* > 100 µg/mL

* * *

Recorded MIC by entry
tested on: Cryptococcus neoformans; assay: Antimicrobial activity against Cryptococcus neoformans H99 assessed as reduction in […] growth and measured for 48 hrs by resazurin dye based broth microdilution method; format: functional

compound	MIC
COC=CC[C@H](C)[C@@H]1CC[C@@H](C)[C@@H]2CCC(C)=C[C@@H]21 (mixture of isomers)	> 100 µg/mL
CC1=C[C@H]2[C@@H](CC1)[C@@H]([C@H](C)C(=O)OCc1cn(CCOCCOCCOCNS(=O)(=O)c3ccc(C4=c5cc6c7c(c5Oc5c4cc4c8c5CCCN8CCC4)CCC[N+]=7CCC6)c(S(=O)(=O)[O-])c3)nn1)CC[C@@H]2C	> 50 µg/mL
Cc1ccc2c(c1)[C@H]([C@@H](C)CO)CC[C@H]2C	≥ 100 µg/mL

*Q* Please look up its MIC: `CC1=C[C@H]2[C@@H](CC1)[C@H](C)CC[C@H]2[C@@H](C)CCCO`
*A* > 100 µg/mL

*Q* Now this one: `CC(=O)OCCC[C@H](C)[C@@H]1CC[C@@H](C)[C@@H]2C[C@@H](O)C(C)=C[C@@H]21`
*A* 25 µg/mL
